# assayProtocol: Phase I pharmacokinetics after single IV bolus
# Format: in vivo
# assaySetup: both sexes, human, plasma, iv, 0.1 mg/kg, single IV bolus 0.10 mg/kg (n = 6), read-out: t1/2 (terminal elimination half-life), Geometric Mean
outcomeMeasure: half-life (min)
Answers are plain numbers, in min.

What measured half-life goes with COc1ccc(C[C@@H]2c3cc(OC)c(OC)cc3CC[N@@+]2(C)CCCOC(=O)/C=C/C(=O)OCCC[N@+]2(C)CCc3cc(OC)c(OC)cc3[C@H]2Cc2ccc(OC)c(OC)c2)cc1OC.[Cl-].[Cl-] ? 23.9

###

# assayProtocol: Phase I pharmacokinetics after single IV bolus
# Type: in vivo
# assaySetup: both sexes, human, plasma, iv, 0.04 mg/kg, single IV bolus 0.04 mg/kg (n = 6), read-out: Cmax, Geometric Mean
outcomeMeasure: Cmax (ng/mL)
Answers are plain numbers, in ng/mL.

Fill in: Cmax of COc1ccc(C[C@@H]2c3cc(OC)c(OC)cc3CC[N@@+]2(C)CCCOC(=O)/C=C/C(=O)OCCC[N@+]2(C)CCc3cc(OC)c(OC)cc3[C@H]2Cc2ccc(OC)c(OC)c2)cc1OC.[Cl-].[Cl-] [RP1000] is ___ 2360
